UniProtKB Q12809: reported IC50 for various compounds.
Sequence (Q12809 whole entry): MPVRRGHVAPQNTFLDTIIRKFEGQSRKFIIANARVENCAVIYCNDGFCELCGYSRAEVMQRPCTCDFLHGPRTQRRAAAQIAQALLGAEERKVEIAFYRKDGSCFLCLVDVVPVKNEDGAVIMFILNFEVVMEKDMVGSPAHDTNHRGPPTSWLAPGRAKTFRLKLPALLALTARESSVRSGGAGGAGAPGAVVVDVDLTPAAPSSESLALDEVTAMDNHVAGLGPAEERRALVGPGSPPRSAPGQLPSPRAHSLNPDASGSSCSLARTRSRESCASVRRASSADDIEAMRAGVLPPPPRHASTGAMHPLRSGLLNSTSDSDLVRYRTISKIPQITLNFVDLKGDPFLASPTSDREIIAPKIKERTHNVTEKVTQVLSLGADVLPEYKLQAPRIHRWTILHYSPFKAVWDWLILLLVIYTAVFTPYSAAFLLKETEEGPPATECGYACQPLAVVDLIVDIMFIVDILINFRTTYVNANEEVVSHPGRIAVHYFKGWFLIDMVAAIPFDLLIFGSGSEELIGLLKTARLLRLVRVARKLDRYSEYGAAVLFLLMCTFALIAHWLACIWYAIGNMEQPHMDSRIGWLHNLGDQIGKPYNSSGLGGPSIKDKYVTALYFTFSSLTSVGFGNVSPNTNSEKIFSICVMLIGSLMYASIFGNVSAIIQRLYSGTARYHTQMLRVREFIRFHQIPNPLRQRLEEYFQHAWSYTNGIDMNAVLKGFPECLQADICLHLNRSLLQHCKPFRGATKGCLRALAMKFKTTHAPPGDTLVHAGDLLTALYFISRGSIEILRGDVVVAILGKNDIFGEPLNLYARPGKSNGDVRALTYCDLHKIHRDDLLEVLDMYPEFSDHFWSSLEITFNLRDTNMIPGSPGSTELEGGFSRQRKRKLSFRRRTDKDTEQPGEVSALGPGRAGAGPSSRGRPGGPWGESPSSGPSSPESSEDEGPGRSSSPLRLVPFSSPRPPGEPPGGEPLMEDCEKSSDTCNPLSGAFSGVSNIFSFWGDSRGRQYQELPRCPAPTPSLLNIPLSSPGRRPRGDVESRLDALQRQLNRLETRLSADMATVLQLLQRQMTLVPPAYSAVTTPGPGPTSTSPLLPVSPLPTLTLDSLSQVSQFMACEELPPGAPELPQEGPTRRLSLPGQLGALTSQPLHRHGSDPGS
READOUT_KIND: IC50

> print(dat)
                                   compound  reading
1  CC(C)(C)NC(=O)C1c2ccccc2C(=O)N1Cc1ccccc1-c1ccccc1 (single isomer, unassigned; enantiomer 1)  > 33 µM
2  CC(C)(C)NC(=O)C1c2ccccc2C(=O)N1Cc1cc(F)ccc1-c1ccc(F)cc1 (single isomer, unassigned; enantiomer 2)  > 33 µM
3  CC(C)(C)NC(=O)C1c2ccccc2C(=O)N1Cc1cc(F)ccc1-c1ccc(F)cc1 (single isomer, unassigned; enantiomer 1)  > 33 µM
